details: buffer; pH 7.4; 200.0 µM
MEASURE: log10 solubility kinetic (log10 of the value in µg/mL)

COMPOUND | log10 solubility kinetic
C=CCc1ccccc1OCC(O)CN1C(=O)c2ccccc2C1=O (stereo not given) | 1.66
COCC(C)NC(=O)c1cc2cc(OC)ccc2[nH]1 (stereo not given) | 1.47
Cc1ccc2c(NC(=O)c3ccco3)cccc2n1 | 1.57
O=C(NC(=S)NC1CCCC1)c1ccccc1 | 1.23
Cc1ccc(OCc2ccc(C(=O)N3CCCC3)o2)cc1C | 1.50
Cc1nc(Cl)sc1C(=O)Nc1ccc(C(C)(C)C)cc1 | 1.05
COc1ccc(CC(=O)NCc2ccccc2)cc1 | 1.35
O=C(Cc1ccc(Cl)cc1)N1CCN(c2ccccc2)CC1 | 1.65
CN(C)c1ccc(NC(=O)Nc2csc3ccccc23)cc1 | -0.15
O=C(Nc1ccc(N2CCOCC2)cc1)c1ccc2ncsc2c1 | 1.00
NS(=O)(=O)c1ccc(NC(=O)c2ccc(OCC3CCCO3)cc2)cc1 (stereo not given) | 1.11
CCN1CCN(Cc2cc(OC)c3c(c2)OCO3)CC1 | 1.53
CC(C)NC(=O)Cn1cc(C(=O)c2ccccc2)c2ccccc21 | 0.23
O=S(=O)(Nc1ccc(N2CCCCC2)cc1)c1ccc(F)cc1 | 0.98
